Here the recorded IC50 at 48 h is given for each entry.
- Protocol Notes: Cytotoxicity against mouse RAW264.7 cells assessed as reduction in cell viability incubated for 48 hrs by CCK8 assay
- Type: toxicity, cell-based

| Molecule | IC50 at 48 h |
| --- | --- |
| CO[C@]12C=CCC(=O)[C@]1(C)[C@H]1CC[C@]3(O)C(=O)O[C@@]4(C)[C@H]5C[C@]6(C)[C@@H](CO[C@]7(O[C@@]43[C@H]6C7=O)[C@@H]1C[C@H]2O)C(=O)O5 | > 50 µM |
| COC(=O)C[C@H](O)C(=O)O[C@]12CC=CC(=O)[C@]1(C)[C@H]1CC[C@]3(O)C(=O)O[C@@]4(C)[C@H]5C[C@]6(C)[C@@H](CO[C@]7(O[C@@]43[C@H]6C7=O)[C@@H]1C[C@H]2O)C(=O)O5 | > 50 µM |
| C[C@@]12C[C@H]3OC(=O)[C@]1(O)CO[C@@]14O[C@@]5([C@H]2C1=O)[C@@]3(C)OC(=O)[C@@]5(O)CC[C@H]1[C@H]4C[C@H](O)[C@]2(O)CC=CC(=O)[C@]12C | > 50 µM |
| COC(=O)C(C)(O)[C@@]1(C)C[C@@H](O)[C@]2(C)OC(=O)[C@@]3(O)CC[C@H]4[C@@H](C[C@@H](O)[C@@]5(O)CC=CC(=O)[C@]45C)[C@]4(O)O[C@@]23[C@H]1C4=O (some centres undefined) | > 50 µM |

Source listed as ChEMBL document CHEMBL5120881.
